Taken from patent US20230072683A1.

targetDesc: DNA-PK(h) (Homo sapiens)
testProtocol: Evaluation of inhibitory activity against DNA-PK (HTRF kinase assay, GST-cMyc-p53 substrate)
Type: biochemical
conditionDetails: compound concentration 0.01 μM; read-out: EXP_VALUE(% Inhibition) DNA-PK(h) 0.01 μM
measureName: inhibition at 0.01 µM (%)

Observe how each entry below is paired with its result.
[[record]]
compound = "C[C@H](Nc1ncnc2[nH]ccc(=O)c12)c1c(Cl)c2cccc(-c3ccc(N4CCCCC4)cc3)c2c(=O)n1-c1ccccc1 [Example 88]"
targetdesc = "DNA-PK(h) (Homo sapiens)"
unit = "%"
endpointresult = 33

[[record]]
compound = "C[C@H](Nc1ncnc2[nH]ccc(=O)c12)c1c(Cl)c2cccc(-c3nnn[nH]3)c2c(=O)n1-c1ccccc1 [Example 352]"
targetdesc = "DNA-PK(h) (Homo sapiens)"
unit = "%"
endpointresult = 34

[[record]]
compound = "C[C@H](Nc1ncnc2[nH]ccc(=O)c12)c1c(Cl)c2cccc(-c3ccc(C4CC4)cc3)c2c(=O)n1-c1ccccc1 [Example 141]"
targetdesc = "DNA-PK(h) (Homo sapiens)"
unit = "%"
endpointresult = 31

[[record]]
compound = "C[C@H](Nc1ncnc2[nH]ccc(=O)c12)c1c(Cl)c2cccc(N3CCCC3O)c2c(=O)n1-c1ccccc1 (some centres unmarked) [Example 339]"
targetdesc = "DNA-PK(h) (Homo sapiens)"
unit = "%"
endpointresult = 8


[A] C[C@H](Nc1ncnc2[nH]ccc(=O)c12)c1c(Cl)c2cccc(-c3ncc(F)cn3)c2c(=O)n1-c1ccccc1 [Example 53]
[B] C[C@H](Nc1ncnc2[nH]ccc(=O)c12)c1c(Cl)c2cccc(C3=CCCC3)c2c(=O)n1-c1ccccc1 [Example 156]
Asked: Identify the entry with the larger inhibition at 0.01 µM. Options: A and B Answer with the label corresponding to your selection.
Given back: B

[I] C[C@H](Nc1ncnc2[nH]ccc(=O)c12)c1c(Cl)c2cccc(NC(=O)c3ccccc3)c2c(=O)n1-c1ccccc1 [Example 299]
[II] C[C@H](Nc1ncnc2[nH]ccc(=O)c12)c1cc2cccc(-c3ccc(N(C)C)cc3)c2c(=O)n1-c1ccccc1 [Example 20]
Asked: When the recorded inhibition at 0.01 µM values are compared, which is smaller: that of I or that of II ? Indicate which entry you chose by stating its label.
Given back: II
(II: 3%, I: 17%)

[I] CNC(=O)c1cccc2c(Cl)c([C@H](C)Nc3ncnc4[nH]ccc(=O)c34)n(-c3ccccc3)c(=O)c12 [Example 274]
[II] C[C@H](Nc1ncnc2[nH]ccc(=O)c12)c1c(Cl)c2cccc(C(=O)NCC3CC3)c2c(=O)n1-c1ccccc1 [Example 283]
[III] CCCCC(=O)Nc1cccc2c(Cl)c([C@H](C)Nc3ncnc4[nH]ccc(=O)c34)n(-c3ccccc3)c(=O)c12 [Example 297]
Asked: Put these in order: smallest inhibition at 0.01 µM first, largest last. List the labels according to the requested ordering.
Given back: II, I, III

[P] C[C@H](Nc1ncnc2[nH]ccc(=O)c12)c1c(Cl)c2cccc(-c3ccc(-c4cccs4)cc3)c2c(=O)n1-c1ccccc1 [Example 93]
[Q] C[C@H](Nc1ncnc2[nH]ccc(=O)c12)c1c(Br)c2cccc(-c3ccc(F)cc3)c2c(=O)n1-c1ccccc1 [Example 18]
Asked: Select the item with the higher value of inhibition at 0.01 µM from the options P and Q listed. Let me know the label of the one you choose.
Given back: Q
(Q: 75%, P: 13%)

[P] C[C@H](Nc1ncnc2[nH]ccc(=O)c12)c1c(Cl)c2cccc(-c3cnc(N)nc3)c2c(=O)n1-c1ccccc1 [Example 56]
[Q] C[C@H](Nc1ncnc2[nH]ccc(=O)c12)c1c(Cl)c2cccc(N3CCC(N4CCCCC4)CC3)c2c(=O)n1-c1ccccc1 [Example 10]
Asked: Between P and Q , whose recorded inhibition at 0.01 µM is greater? Write the label of whichever entry you select.
Given back: P

[A] C[C@H](Nc1ncnc2[nH]ccc(=O)c12)c1c(Cl)c2cccc(-c3ccc4c(c3)OCCO4)c2c(=O)n1-c1ccccc1 [Example 253]
[B] C[C@H](Nc1ncnc2[nH]ccc(=O)c12)c1c(Cl)c2cccc(-c3ccc(-c4ccncc4)cc3)c2c(=O)n1-c1ccccc1 [Example 105]
[C] COc1cc(-c2cccc3c(Cl)c([C@H](C)Nc4ncnc5[nH]ccc(=O)c45)n(-c4ccccc4)c(=O)c23)ncn1 [Example 45]
Asked: Arrange the 3 entries by inhibition at 0.01 µM so the values rise. Form entry: ranked labels (order as requested).
Given back: C, B, A

[1] C[C@H](Nc1ncnc2[nH]ccc(=O)c12)c1c(Cl)c2cccc(-c3cnc4c(c3)OCCO4)c2c(=O)n1-c1ccccc1 [Example 132]
[2] C[C@H](Nc1ncnc2[nH]ccc(=O)c12)c1c(Cl)c2cccc(SCc3ccc(Cl)cc3)c2c(=O)n1-c1ccccc1 [Example 369]
Asked: For the pair 1 and 2 , which entry has the numerically smaller recorded inhibition at 0.01 µM? Please indicate the selected item by its label.
Given back: 2

[a] CSc1ncc(-c2cccc3c(Cl)c([C@H](C)Nc4ncnc5[nH]ccc(=O)c45)n(-c4ccccc4)c(=O)c23)cn1 [Example 214]
[b] C[C@H](Nc1ncnc2[nH]ccc(=O)c12)c1c(Cl)c2cccc(-c3ccc(S)cc3)c2c(=O)n1-c1ccccc1 [Example 95]
[c] C[C@H](Nc1ncnc2[nH]ccc(=O)c12)c1c(Cl)c2cccc(-c3ccc(C#N)cn3)c2c(=O)n1-c1ccccc1 [Example 31]
Asked: Order the 3 compounds from highest to lowest inhibition at 0.01 µM. Record the ranking as a list of labels in the requested order.
Given back: a, b, c

====

targetDesc: DNA-PK(h) (Homo sapiens)
testProtocol: Evaluation of inhibitory activity against DNA-PK (HTRF kinase assay, GST-cMyc-p53 substrate)
Type: biochemical
conditionDetails: compound at 0.1 μM; read-out: EXP_VALUE(% Inhibition) DNA-PK(h) 0.1 μM
measureName: inhibition at 0.1 µM (%)

[[record]]
compound = "Cc1ccc(-c2cccc3c(Cl)c([C@H](C)Nc4ncnc5[nH]ccc(=O)c45)n(-c4ccccc4)c(=O)c23)s1"
unit = "%"
endpointresult = 58

[[record]]
compound = "CC(C)S(=O)(=O)c1cccc2c(Cl)c([C@H](C)Nc3ncnc4[nH]ccc(=O)c34)n(-c3ccccc3)c(=O)c12"
unit = "%"
endpointresult = 52

[[record]]
compound = "C[C@H](Nc1ncnc2[nH]ccc(=O)c12)c1c(Cl)c2cccc(C(=O)NCc3ccncc3)c2c(=O)n1-c1ccccc1"
unit = "%"
endpointresult = 16


[a] C[C@H](Nc1ncnc2[nH]ccc(=O)c12)c1c(Cl)c2cccc(SC3COC3)c2c(=O)n1-c1ccccc1
[b] C[C@H](Nc1ncnc2[nH]ccc(=O)c12)c1c(Cl)c2cccc(Oc3cccnc3)c2c(=O)n1-c1ccccc1
Asked: Recorded inhibition at 0.1 µM values differ for a and b ; which one is higher? Write the label of whichever entry you select.
Given back: b

[P] C[C@H](Nc1ncnc2[nH]ccc(=O)c12)c1c(Cl)c2cccc(S(=O)(=O)c3ncccn3)c2c(=O)n1-c1ccccc1
[Q] C[C@H](Nc1ncnc2[nH]ccc(=O)c12)c1c(Cl)c2cccc(-c3cnc(F)nc3)c2c(=O)n1-c1ccccc1
[R] C[C@H](Nc1ncnc2[nH]ccc(=O)c12)c1c(Cl)c2cccc(S(C)(=N)=O)c2c(=O)n1-c1ccccc1 (some centres unmarked)
[S] CC(C)c1ncc(-c2cccc3c(Cl)c([C@H](C)Nc4ncnc5[nH]ccc(=O)c45)n(-c4ccccc4)c(=O)c23)cn1
Asked: Ascending by inhibition at 0.1 µM, please: list the compounds accordingly. Provide the ranking by listing each label in its place in the requested order.
Given back: Q, R, P, S
(Q: 5%, R: 16%, P: 36%, S: 69%)

[1] C[C@H](Nc1ncnc2[nH]ccc(=O)c12)c1c(Cl)c2cccc(-c3cnc(S(C)(=O)=O)nc3)c2c(=O)n1-c1ccccc1
[2] C[C@H](Nc1ncnc2[nH]ccc(=O)c12)c1c(Cl)c2cccc(-c3cnc(-c4ccco4)nc3)c2c(=O)n1-c1ccccc1
Asked: Which value of inhibition at 0.1 µM is numerically greater: that of 1 or that of 2 ? Write down the label of the entry you select.
Given back: 1
(1: 45%, 2: 18%)

[I] C[C@H](Nc1ncnc2[nH]ccc(=O)c12)c1c(Cl)c2cccc(OCc3ccncc3)c2c(=O)n1-c1ccccc1
[II] C[C@H](Nc1ncnc2[nH]ccc(=O)c12)c1c(Cl)c2cccc(S(=O)(=O)c3ccncc3)c2c(=O)n1-c1ccccc1
Asked: Lab note: record which item had the higher inhibition at 0.1 µM, I or II . Please reply using the label of the selected record.
Given back: I
(I: 63%, II: 22%)

====

targetDesc: PI3K-δ (PI3K(p1108/p857) (h)) (Homo sapiens, UniProt O00329)
Sequence (O00329 whole entry): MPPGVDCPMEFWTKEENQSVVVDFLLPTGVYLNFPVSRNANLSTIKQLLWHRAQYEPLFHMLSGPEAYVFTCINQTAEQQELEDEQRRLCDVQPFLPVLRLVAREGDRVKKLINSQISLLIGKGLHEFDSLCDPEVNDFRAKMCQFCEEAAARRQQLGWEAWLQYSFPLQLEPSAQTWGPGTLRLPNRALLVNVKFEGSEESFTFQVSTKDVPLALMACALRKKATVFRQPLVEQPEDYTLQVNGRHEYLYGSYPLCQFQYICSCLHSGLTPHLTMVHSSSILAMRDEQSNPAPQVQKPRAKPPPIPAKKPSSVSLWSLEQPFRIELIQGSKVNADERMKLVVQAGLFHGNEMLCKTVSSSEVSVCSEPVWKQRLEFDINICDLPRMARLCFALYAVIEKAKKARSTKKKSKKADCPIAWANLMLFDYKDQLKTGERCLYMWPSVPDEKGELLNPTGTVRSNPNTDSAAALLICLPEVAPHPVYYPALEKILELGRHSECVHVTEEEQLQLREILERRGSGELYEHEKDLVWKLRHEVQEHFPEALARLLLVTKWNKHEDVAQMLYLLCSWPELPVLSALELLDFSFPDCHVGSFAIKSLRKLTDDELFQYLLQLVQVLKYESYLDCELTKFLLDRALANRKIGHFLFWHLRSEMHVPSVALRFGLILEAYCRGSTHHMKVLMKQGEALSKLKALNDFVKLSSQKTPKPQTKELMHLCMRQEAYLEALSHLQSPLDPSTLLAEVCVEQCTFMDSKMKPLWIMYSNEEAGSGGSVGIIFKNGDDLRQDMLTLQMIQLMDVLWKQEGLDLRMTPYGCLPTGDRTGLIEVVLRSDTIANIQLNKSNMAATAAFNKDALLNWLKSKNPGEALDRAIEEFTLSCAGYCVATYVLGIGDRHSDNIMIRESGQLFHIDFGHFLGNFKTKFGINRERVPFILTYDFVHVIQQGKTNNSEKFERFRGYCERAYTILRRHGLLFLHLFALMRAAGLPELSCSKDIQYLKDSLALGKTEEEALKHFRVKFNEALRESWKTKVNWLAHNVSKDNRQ
Sequence (P27986 whole entry partner): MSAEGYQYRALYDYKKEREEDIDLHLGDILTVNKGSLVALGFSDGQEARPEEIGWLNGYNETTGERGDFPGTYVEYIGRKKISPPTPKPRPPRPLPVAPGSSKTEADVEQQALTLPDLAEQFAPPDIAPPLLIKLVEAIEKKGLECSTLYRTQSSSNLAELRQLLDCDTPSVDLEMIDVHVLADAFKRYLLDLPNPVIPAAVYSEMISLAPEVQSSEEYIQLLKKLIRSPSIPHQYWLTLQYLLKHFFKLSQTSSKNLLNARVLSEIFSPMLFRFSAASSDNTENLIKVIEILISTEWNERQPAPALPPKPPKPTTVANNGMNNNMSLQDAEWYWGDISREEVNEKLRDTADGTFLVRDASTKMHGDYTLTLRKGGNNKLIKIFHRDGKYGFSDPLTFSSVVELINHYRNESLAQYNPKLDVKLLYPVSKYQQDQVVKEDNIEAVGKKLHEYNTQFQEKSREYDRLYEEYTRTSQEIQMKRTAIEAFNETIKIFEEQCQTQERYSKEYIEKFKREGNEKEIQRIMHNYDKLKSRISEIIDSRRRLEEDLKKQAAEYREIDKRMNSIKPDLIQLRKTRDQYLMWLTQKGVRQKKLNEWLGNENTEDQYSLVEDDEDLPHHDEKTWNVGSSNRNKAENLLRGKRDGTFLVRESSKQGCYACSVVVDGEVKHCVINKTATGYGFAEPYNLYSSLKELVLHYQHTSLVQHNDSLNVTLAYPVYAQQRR
testProtocol: Evaluation of inhibitory activity against PI3K-δ (HTRF kinase assay)
Format: biochemical
conditionDetails: compound concentration 0.1 μM; read-out: EXP_VALUE(% Inhibition) PI3K-δ 0.1 μM
measureName: inhibition at 0.1 µM (%)

Worked examples, 3 molecules total:
[[record]]
molecule = "C[C@H](Nc1ncnc2[nH]ccc(=O)c12)c1c(Cl)c2cccc(-c3ccc(N(C)C)nc3)c2c(=O)n1-c1ccccc1"
targetdesc = "PI3K-δ (PI3K(p1108/p857) (h)) (Homo sapiens, UniProt O00329)"
measurename = "inhibition at 0.1 µM"
unit = "%"
endpointresult = 94

[[record]]
molecule = "C[C@H](Nc1ncnc2[nH]ccc(=O)c12)c1c(Cl)c2cccc(N3CCOCC3)c2c(=O)n1-c1ccccc1"
targetdesc = "PI3K-δ (PI3K(p1108/p857) (h)) (Homo sapiens, UniProt O00329)"
measurename = "inhibition at 0.1 µM"
unit = "%"
endpointresult = 109

[[record]]
molecule = "C[C@H](Nc1ncnc2[nH]ccc(=O)c12)c1c(Cl)c2cccc(-c3ccc(C4CCC4)cc3)c2c(=O)n1-c1ccccc1"
targetdesc = "PI3K-δ (PI3K(p1108/p857) (h)) (Homo sapiens, UniProt O00329)"
measurename = "inhibition at 0.1 µM"
unit = "%"
endpointresult = 81


[A] C[C@H](Nc1ncnc2[nH]ccc(=O)c12)c1c(Cl)c2cccc(-c3cc(F)cc(Cl)c3)c2c(=O)n1-c1ccccc1
[B] C[C@H](Nc1ncnc2[nH]ccc(=O)c12)c1c(Cl)c2cccc(-c3ccc4c(c3)NC(=O)C(C)(C)O4)c2c(=O)n1-c1ccccc1
Asked: Name the one with the greater inhibition at 0.1 µM value, either A or B as given. Your answer should be the label attached to the chosen record.
Given back: A

[a] C[C@H](Nc1ncnc2[nH]ccc(=O)c12)c1c(Cl)c2cccc(-c3cccc(F)c3F)c2c(=O)n1-c1ccccc1
[b] C[C@H](Nc1ncnc2[nH]ccc(=O)c12)c1c(Cl)c2cccc(-c3ccc(Cl)c(Cl)c3)c2c(=O)n1-c1ccccc1
Asked: Parameter check: reported inhibition at 0.1 µM is higher for which label, a or b ? Answer = label.
Given back: a
(a: 67%, b: 44%)
